IC50, inhibition of classical pathway complement activation, ELISA: recorded values
assayed_system: C3 purified from fresh human plasma (human, UniProt P01024 23-1663)
Sequence (P01024 23-1663): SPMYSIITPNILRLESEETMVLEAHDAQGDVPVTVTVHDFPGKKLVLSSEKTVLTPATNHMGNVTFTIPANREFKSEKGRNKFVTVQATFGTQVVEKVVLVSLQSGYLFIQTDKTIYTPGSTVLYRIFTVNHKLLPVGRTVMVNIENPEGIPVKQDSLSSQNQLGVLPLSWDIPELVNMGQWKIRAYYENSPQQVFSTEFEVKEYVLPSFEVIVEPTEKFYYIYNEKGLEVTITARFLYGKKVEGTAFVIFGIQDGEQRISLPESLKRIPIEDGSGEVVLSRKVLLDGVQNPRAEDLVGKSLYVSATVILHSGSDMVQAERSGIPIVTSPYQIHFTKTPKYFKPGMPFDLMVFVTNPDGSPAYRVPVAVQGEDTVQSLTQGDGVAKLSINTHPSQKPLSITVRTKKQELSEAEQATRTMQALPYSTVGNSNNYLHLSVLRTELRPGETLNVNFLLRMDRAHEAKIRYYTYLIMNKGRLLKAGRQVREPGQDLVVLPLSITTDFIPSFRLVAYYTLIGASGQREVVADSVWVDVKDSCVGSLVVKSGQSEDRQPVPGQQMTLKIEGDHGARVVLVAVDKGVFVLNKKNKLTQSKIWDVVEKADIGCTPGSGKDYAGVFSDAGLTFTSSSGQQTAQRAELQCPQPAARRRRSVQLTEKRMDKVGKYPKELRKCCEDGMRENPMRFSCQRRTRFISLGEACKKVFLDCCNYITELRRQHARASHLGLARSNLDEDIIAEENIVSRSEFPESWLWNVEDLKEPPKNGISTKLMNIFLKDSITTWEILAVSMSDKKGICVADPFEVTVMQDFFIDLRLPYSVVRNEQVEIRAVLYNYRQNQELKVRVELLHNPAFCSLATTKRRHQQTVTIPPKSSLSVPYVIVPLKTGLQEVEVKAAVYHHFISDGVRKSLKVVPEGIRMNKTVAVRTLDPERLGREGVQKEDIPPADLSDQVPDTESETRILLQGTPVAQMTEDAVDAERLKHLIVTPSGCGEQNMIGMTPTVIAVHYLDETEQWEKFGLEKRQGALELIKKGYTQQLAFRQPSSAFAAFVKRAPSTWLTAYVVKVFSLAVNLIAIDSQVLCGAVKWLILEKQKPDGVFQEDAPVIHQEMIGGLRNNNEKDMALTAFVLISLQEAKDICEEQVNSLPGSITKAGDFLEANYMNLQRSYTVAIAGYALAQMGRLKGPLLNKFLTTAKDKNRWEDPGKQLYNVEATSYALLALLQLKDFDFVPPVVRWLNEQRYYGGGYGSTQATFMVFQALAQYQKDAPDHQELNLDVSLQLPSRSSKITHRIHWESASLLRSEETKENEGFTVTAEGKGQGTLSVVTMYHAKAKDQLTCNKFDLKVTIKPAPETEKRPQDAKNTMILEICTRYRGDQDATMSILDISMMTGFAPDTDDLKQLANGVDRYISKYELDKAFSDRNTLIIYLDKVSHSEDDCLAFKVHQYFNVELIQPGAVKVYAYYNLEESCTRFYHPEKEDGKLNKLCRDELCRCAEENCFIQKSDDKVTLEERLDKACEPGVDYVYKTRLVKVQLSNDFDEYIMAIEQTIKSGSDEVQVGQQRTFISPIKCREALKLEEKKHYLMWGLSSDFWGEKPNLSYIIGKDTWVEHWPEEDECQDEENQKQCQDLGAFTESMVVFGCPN
method_description: cell-based or functional assay
Bridge positions count the residues as written; N and C are the ends. Square brackets hold non-standard residues; d marks the D form. Trp(1-Me) = Cn1cc(C[C@H](N)C(=O)O)c2ccccc21; NMeI = CC[C@H](C)[C@H](NC)C(=O)O; Nle = CCCC[C@H](N)C(=O)O; Sar = CNCC(=O)O
The reply should be a number in nM, with the unit left off.

Give the value of IC50, inhibition of classical pathway complement activation, ELISA reported for the following: Ac-ICV[Trp(1-Me)]QDW[Sar]AHRCL-NH2 (disulfide 2-12; SMILES CC[C@H](C)[C@H](NC(C)=O)C(=O)N[C@H]1CSSC[C@@H](C(=O)N[C@@H](CC(C)C)C(N)=O)NC(=O)[C@H](CCCNC(=N)N)NC(=O)[C@H](Cc2c[nH]cn2)NC(=O)[C@H](C)NC(=O)CN(C)C(=O)[C@H](Cc2c[nH]c3ccccc23)NC(=O)[C@H](CC(=O)O)NC(=O)[C@H](CCC(N)=O)NC(=O)[C@H](Cc2cn(C)c3ccccc23)NC(=O)[C@H](C(C)C)NC1=O) [Ac-Ic[CV(1-MeW)QDW(N-MeG)AHRC]L-NH2]
108

Answer with the recorded IC50, inhibition of classical pathway complement activation, ELISA for the binder listed here: Ac-ICV[Trp(1-Me)]QDW[Sar]AHRC[Nle]-NH2 (disulfide 2-12; SMILES CCCC[C@H](NC(=O)[C@@H]1CSSC[C@H](NC(=O)[C@@H](NC(C)=O)[C@@H](C)CC)C(=O)N[C@@H](C(C)C)C(=O)N[C@@H](Cc2cn(C)c3ccccc23)C(=O)N[C@@H](CCC(N)=O)C(=O)N[C@@H](CC(=O)O)C(=O)N[C@@H](Cc2c[nH]c3ccccc23)C(=O)N(C)CC(=O)N[C@@H](C)C(=O)N[C@@H](Cc2c[nH]cn2)C(=O)N[C@@H](CCCNC(=N)N)C(=O)N1)C(N)=O) [Ac-Ic[CV(1-MeW)QDW(N-MeG)AHRC](Nle)-NH2]
109

Please look at this binder and report its IC50, inhibition of classical pathway complement activation, ELISA: Ac-ICV[Trp(1-Me)]QDW[Sar]AHRCF-NH2 (disulfide 2-12; SMILES CC[C@H](C)[C@H](NC(C)=O)C(=O)N[C@H]1CSSC[C@@H](C(=O)N[C@@H](Cc2ccccc2)C(N)=O)NC(=O)[C@H](CCCNC(=N)N)NC(=O)[C@H](Cc2c[nH]cn2)NC(=O)[C@H](C)NC(=O)CN(C)C(=O)[C@H](Cc2c[nH]c3ccccc23)NC(=O)[C@H](CC(=O)O)NC(=O)[C@H](CCC(N)=O)NC(=O)[C@H](Cc2cn(C)c3ccccc23)NC(=O)[C@H](C(C)C)NC1=O) [peptide 23]
257

Answer with the recorded IC50, inhibition of classical pathway complement activation, ELISA for the binder listed here: Ac-ICV[Trp(1-Me)]QDW[Sar]AHRCI-NH2 (disulfide 2-12; SMILES CC[C@H](C)[C@H](NC(=O)[C@@H]1CSSC[C@H](NC(=O)[C@@H](NC(C)=O)[C@@H](C)CC)C(=O)N[C@@H](C(C)C)C(=O)N[C@@H](Cc2cn(C)c3ccccc23)C(=O)N[C@@H](CCC(N)=O)C(=O)N[C@@H](CC(=O)O)C(=O)N[C@@H](Cc2c[nH]c3ccccc23)C(=O)N(C)CC(=O)N[C@@H](C)C(=O)N[C@@H](Cc2c[nH]cn2)C(=O)N[C@@H](CCCNC(=N)N)C(=O)N1)C(N)=O, Sar^8, Ile^13; also called peptide 17; Ac-Ic[CV(1-MeW)QDW(N-MeG)AHRC]I-NH2) [Ac-Ile-c[Cys-Val-Trp(Me)-Gln-Asp-Trp-Sar-Ala-His-Arg-Cys]-Ile-NH2]
92

Provide measured IC50, inhibition of classical pathway complement activation, ELISA value, entry: Ac-ICV[Trp(1-Me)]QDW[Sar]AHRC[NMeI]-NH2 (disulfide 2-12; SMILES CC[C@H](C)[C@H](NC(C)=O)C(=O)N[C@H]1CSSC[C@@H](C(=O)N(C)[C@H](C(N)=O)[C@@H](C)CC)NC(=O)[C@H](CCCNC(=N)N)NC(=O)[C@H](Cc2c[nH]cn2)NC(=O)[C@H](C)NC(=O)CN(C)C(=O)[C@H](Cc2c[nH]c3ccccc23)NC(=O)[C@H](CC(=O)O)NC(=O)[C@H](CCC(N)=O)NC(=O)[C@H](Cc2cn(C)c3ccccc23)NC(=O)[C@H](C(C)C)NC1=O, Sar^8, (NMe)Ile^13; also called peptide 21; analog 21) [Ac-Ic[CV(1-MeW)QDW(N-MeG)AHRC](N-MeI)-NH2]
62

Query IC50, inhibition of classical pathway complement activation, ELISA for Ac-ICV[Trp(1-Me)]QDW[Sar]AHRCH-NH2 (disulfide 2-12; SMILES CC[C@H](C)[C@H](NC(C)=O)C(=O)N[C@H]1CSSC[C@@H](C(=O)N[C@@H](Cc2c[nH]cn2)C(N)=O)NC(=O)[C@H](CCCNC(=N)N)NC(=O)[C@H](Cc2c[nH]cn2)NC(=O)[C@H](C)NC(=O)CN(C)C(=O)[C@H](Cc2c[nH]c3ccccc23)NC(=O)[C@H](CC(=O)O)NC(=O)[C@H](CCC(N)=O)NC(=O)[C@H](Cc2cn(C)c3ccccc23)NC(=O)[C@H](C(C)C)NC1=O) [peptide 22]
160
